species on record: Rattus norvegicus; test: Positive allosteric modulation of rat cortex AMPA receptor expressed in Xenopus laevis oocytes assessed as potentiation of (S)-AMPA-induced current amplitude at 10 uM by voltage clamp technique relative to (S)-AMPA; format: cell-based
Each entry below carries its recorded Emax.

Past entries and their recorded results:
smi: O=S1(=O)NCN(CC(F)F)c2c(Cl)sc(Cl)c21
Emax: > 227%

smi: CCN1C=NS(=O)(=O)c2sc(Cl)cc21
Emax: > 175%

smi: CN1C=NS(=O)(=O)c2c(Cl)sc(Cl)c21
Emax: > 413%

# next compound below
Quick one: Emax of CCN1C=NS(=O)(=O)c2c(Cl)sc(Cl)c21 ?
> 1000%
